- System: RAW-Dual (murine macrophage reporter line)
- test_summary: NF-kB reporter (SEAP) activity fold change vs agonist alone; higher = enhanced NF-kB activity
- test_conditions: modulator concentration 10 µM; agonist: MPLA […]
Mark Fulfilled for reported NF-kB reporter of 1 or greater; mark Not fulfilled for anything smaller.

COC(c1ccccc1)(c1ccccc1)C(Oc1nc(C)cc(C)n1)C(=O)O (configuration not stated) [Prestw-1497]: Not fulfilled
CCCOc1ccc(-c2ccc(-c3nc(Cc4ccc(OC)c(OC)c4)no3)cc2)cc1: Fulfilled
O=C(Nc1nc(CC(=O)N2CCc3ccccc3C2)cs1)c1ccc(Cl)cc1: Not fulfilled

Moving on to the next compound.
Query: I'd appreciate it if you could say whether `CCN1C(=O)C(=Cc2cc(Br)ccc2OCCOc2ccccc2Cl)SC1=S` has NF-kB reporter at least equal to 1.
Response: Fulfilled

* * *

- System: RAW-Dual (murine macrophage reporter line)
- test_summary: IRF reporter (Lucia luciferase) activity fold change vs agonist alone; higher = enhanced IRF activity
- test_conditions: modulator concentration 10 µM; agonist: MPLA […]
Mark Satisfied for reported IRF reporter of 1 or greater; mark Not satisfied for anything smaller.

CCn1c(C=Nn2cnnc2)nc2ccccc21: Not satisfied
Cc1ccc(Nc2nc(Cl)nc(Nc3ccc(C(C)C)cc3)n2)cc1: Satisfied
Cl.NC12CC3CC(CC(C3)C1)C2: Satisfied

Query: I'd appreciate it if you could say whether `FC(F)(F)c1ccc(CNc2ccc(Cc3c[nH]c4ncc(Cl)cc34)cn2)cn1` has IRF reporter at least equal to 1.
Response: Not satisfied

Query: I'd appreciate it if you could say whether `CN1CCN(C2=Nc3ccccc3Oc3ccc(Cl)cc32)CC1.O=C(O)CCC(=O)O` has IRF reporter at least equal to 1.
Response: Not satisfied

* * *

Measured viability score accompanies every entry in the list below.
- System: RAW-Dual (murine macrophage reporter line)
- test_summary: viability score (confluency relative to resting cells, overnight) (fraction); higher = more viable, active = viable (0.7 or more)
- test_conditions: modulator concentration 10 µM
Give the value as a plain number.

Check out these entries, answers already filled in.
CN1CCC(OC(c2ccccc2)c2ccccc2)CC1.Cl: 0.992
Cc1ccc(C)c(C(=O)c2ccccc2NC(=O)c2ccccn2)c1: 1.01
Cc1ccc(F)c(NC(=O)Nc2ccc(-c3cccc4[nH]nc(N)c34)cc2)c1: 0.829

Query: Please report viability score for the following compound: O=C1CCC(=O)N1C1CC2CCC(C1)N2C(=O)c1cnccn1 (stereo not drawn)
Response: 0.954

Query: Please report viability score for the following compound: `O=C(O)CN1C(=O)c2cccc3cccc(c23)C1=O`
Response: 0.998

* * *

- Test system: RAW-Dual (murine macrophage reporter line)
- test_summary: viability score (confluency relative to resting cells, overnight) (fraction); higher = more viable, active = viable (0.7 or more)
- test_conditions: modulator concentration 10 µM
Measured viability score accompanies every entry in the list below.
Give the value as a plain number.

Check out these entries, answers already filled in.
COc1ccc(C=NNc2nc(-c3ccccc3)cc(-c3ccc(Br)cc3)n2)c(OC)c1: 1.03
O=C(NC(=S)Nc1cccc([N+](=O)[O-])c1)c1cccc(I)c1: 1
Cc1ccc(OCC(=O)NN=Cc2cc(Br)cc(Br)c2O)c([N+](=O)[O-])c1: 1.02
COc1ccc(C(C)=NNC(=O)Nc2ccccc2)c(OC)c1: 1.01
COc1cc(O)c(C(=O)Nc2nc(C(=O)NCCN(C(C)C)C(C)C)cs2)cc1OC: 0.994

Pending compound:
Query: Please report viability score for the following compound: COC(=O)C1=C(C)NC(C)=C(C(=O)OCCN(C)Cc2ccccc2)C1c1cccc([N+](=O)[O-])c1 (configuration not stated)
Response: 0.982
